System: Venturia inaequalis; Bayer Code VENTIN
test name: Apple scab
Assay type: in vivo
particulars: 24 h, % disease control rating, one day protectant, 75 ppm, read-out: VENTIN 1 DP 75 ppm

{"query smiles": "CC/C(=N\\c1nc(OCc2ccc(F)cc2)ncc1F)N(C)C", "pest or weed control at 75 ppm": "76 to 100%"}
{"query smiles": "COc1ccccc1CCOc1ncc(F)c(N)n1", "pest or weed control at 75 ppm": "51 to 75%"}
{"query smiles": "Cc1ccc(COc2ncc(F)c(N)n2)cc1", "pest or weed control at 75 ppm": "76 to 100%"}
{"query smiles": "CCOC(=O)COc1ncc(F)c(N)n1", "pest or weed control at 75 ppm": "26 to 50%"}
{"query smiles": "Fc1cnc(OCc2ccccc2)nc1NNc1ccccn1", "pest or weed control at 75 ppm": "26 to 50%"}
{"query smiles": "Fc1cnc(OCc2cccs2)nc1N1CCOCC1", "pest or weed control at 75 ppm": "26 to 50%"}
{"query smiles": "CCn1nccc1Oc1ncc(F)c(N)n1", "pest or weed control at 75 ppm": "26 to 50%"}
{"query smiles": "CC(C)(C)OC(=O)NOc1ncc(F)c(N)n1", "pest or weed control at 75 ppm": "76 to 100%"}
{"query smiles": "Nc1nc(OCc2ccc(OCC(F)(F)F)nc2)ncc1F", "pest or weed control at 75 ppm": "26 to 50%"}
{"query smiles": "Nc1nc(OCCCc2ccccn2)ncc1F", "pest or weed control at 75 ppm": "76 to 100%"}
{"query smiles": "CCOCNc1nc(OCc2cccs2)ncc1F", "pest or weed control at 75 ppm": "51 to 75%"}

====

Test system: Mycosphaerella graminicola; Anamorph: Septoria tritici; Bayer Code SEPTTR
test name: Leaf blotch of wheat, foliar fungicide treatment, one day protectant (1DP) or three day curative (3DC)
Format: in vivo, Septoria tritici on wheat plants (variety Yuma)
particulars: Zymoseptoria tritici, 72 h, three day curative, 25 ppm, rating of percent disease control, read-out: SEPTTR 3DC 25 ppm

{"compound": "Fc1cnc(OCc2ccccc2)nc1/N=C/N1CCOCC1", "pest or weed control at 25 ppm": "76 to 100%"}
{"compound": "Cn1ccc(COc2ncc(F)c(NC(=S)NCc3ccccc3F)n2)n1", "pest or weed control at 25 ppm": "0 to 25%"}
{"compound": "CC(C)CCOc1ncc(F)c(N)n1", "pest or weed control at 25 ppm": "0 to 25%"}
{"compound": "CCOCNc1nc(OCc2ccc(C)cc2)ncc1F", "pest or weed control at 25 ppm": "76 to 100%"}
{"compound": "Cc1csc(COc2ncc(F)c(N)n2)c1", "pest or weed control at 25 ppm": "76 to 100%"}
{"compound": "CCCCCCOc1ncc(F)c(NC(C)=O)n1", "pest or weed control at 25 ppm": "0 to 25%"}
{"compound": "O=[N+]([O-])c1ccccc1SNc1nc(OCc2ccc(F)cc2F)ncc1F", "pest or weed control at 25 ppm": "26 to 50%"}
{"compound": "Nc1nc(OCc2cc3ccccc3o2)ncc1F", "pest or weed control at 25 ppm": "26 to 50%"}
{"compound": "C=CCc1cc(COc2ncc(F)c(N)n2)cc(OC)c1OC", "pest or weed control at 25 ppm": "51 to 75%"}
{"compound": "Cc1cccc(Oc2ccc(COc3ncc(F)c(N)n3)cc2)c1", "pest or weed control at 25 ppm": "76 to 100%"}
{"compound": "COc1cc(COc2ncc(F)c(NSc3ccccc3[N+](=O)[O-])n2)cc(OC)c1", "pest or weed control at 25 ppm": "0 to 25%"}
{"compound": "Cc1ccccc1C(C)Oc1ncc(F)c(/N=C/N(C)C)n1 (stereo not drawn)", "pest or weed control at 25 ppm": "76 to 100%"}
{"compound": "Nc1nc(OCc2ccc(Cl)c(Cl)c2)ncc1F", "pest or weed control at 25 ppm": "76 to 100%"}
{"compound": "COc1cccc(COc2ncc(F)c(NCOCc3ccccc3)n2)c1", "pest or weed control at 25 ppm": "0 to 25%"}
{"compound": "Nc1nc(OCc2ccc(C(F)(F)F)cc2)ncc1F", "pest or weed control at 25 ppm": "51 to 75%"}
{"compound": "Cc1ccccc1COc1ncc(F)c(N)n1", "pest or weed control at 25 ppm": "76 to 100%"}
{"compound": "CCn1nccc1Oc1ncc(F)c(N)n1", "pest or weed control at 25 ppm": "0 to 25%"}
{"compound": "CCCNC(=O)Nc1nc(OCc2ccccc2OC)ncc1F", "pest or weed control at 25 ppm": "0 to 25%"}
{"compound": "CC(Oc1ncc(F)c(N)n1)c1cccc([N+](=O)[O-])c1 (stereo not drawn)", "pest or weed control at 25 ppm": "26 to 50%"}
{"compound": "CCCCCCOc1ncc(F)c(N[Si](CC)(CC)CC)n1", "pest or weed control at 25 ppm": "0 to 25%"}
{"compound": "C=CCCOc1ncc(F)c(N)n1", "pest or weed control at 25 ppm": "26 to 50%"}
